Biological target: Beta-2 adrenergic receptor (Homo sapiens, UniProt P07550)
Sequence (P07550 whole entry): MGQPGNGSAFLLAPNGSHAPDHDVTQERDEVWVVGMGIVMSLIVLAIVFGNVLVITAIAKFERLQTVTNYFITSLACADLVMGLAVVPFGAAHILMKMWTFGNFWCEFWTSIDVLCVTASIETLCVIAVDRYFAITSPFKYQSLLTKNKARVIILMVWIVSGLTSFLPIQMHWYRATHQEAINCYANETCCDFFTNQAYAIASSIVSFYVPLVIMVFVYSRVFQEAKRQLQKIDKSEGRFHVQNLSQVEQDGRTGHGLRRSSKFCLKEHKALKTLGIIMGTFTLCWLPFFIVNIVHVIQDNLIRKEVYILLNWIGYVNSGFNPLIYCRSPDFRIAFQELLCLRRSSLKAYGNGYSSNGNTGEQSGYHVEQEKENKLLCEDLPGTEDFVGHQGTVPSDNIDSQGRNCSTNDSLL
Assay: DRUGMATRIX: Adrenergic beta2 radioligand binding (ligand: [3H] CGP-12177)
Type: cell membranes, CHO, Membrane
Details: Not Active = under 50% inhibition at 10 µM; read-out: IC50
OBSERVED_PROPERTY: IC50 (nM)

INSERT INTO results (compound, unit_label, measured_result) VALUES
  ('CC(C)(C)NC[C@H](O)COc1cccc2c1CCCC2=O [LEVOBUNOLOL]', 'nM', 0.793);

* * *

Assay: DRUGMATRIX: Calcium Channel Type L, Benzothiazepine radioligand binding (ligand: [3H] Diltiazem)
Assay type: cell membranes, Rattus norvegicus, Wistar, Brain, Membrane
Settings: Not Active = under 50% inhibition at 10 µM
OBSERVED_PROPERTY: IC50

INSERT INTO measurements (compound, observed_property, measured_result) VALUES
  ('CNC[C@H](O)c1ccc(O)c(O)c1 [EPINEPHRINE]', 'IC50', 'Not Active'),
  ('COc1cc(/C=C/C(=O)O)ccc1O [FERULATE]', 'IC50', 'Not Active'),
  ('OC[C@H]1OC2C3[C@@H](CO)OC(O[C@H]4[C@H](O)[C@@H](O)[C@@H](O[C@H]5[C@H](O)[C@@H](O)[C@@H](O[C@H]6[C@H](O)[C@@H](O)[C@@H](O[C@H]7[C@H](O)[C@@H](O)[C@@H](O[C@H]8[C@H](O)[C@@H](O)[C@@H](O[C@H]9[C@H](O)[C@@H](O)C(OC1[C@H](O)[C@H]2O)O[C@@H]9CO)O[C@@H]8CO)O[C@@H]7CO)O[C@@H]6CO)O[C@@H]5CO)O[C@@H]4CO)[C@H](O)[C@H]3O', 'IC50', 'Not Active'),
  ('OC[C@H]1O[C@@H]2O[C@H]3[C@H](O)[C@@H](O)[C@@H](O[C@H]4[C@H](O)[C@@H](O)[C@@H](O[C@H]5[C@H](O)[C@@H](O)[C@@H](O[C@H]6[C@H](O)[C@@H](O)[C@@H](O[C@H]7[C@H](O)[C@@H](O)[C@@H](O[C@H]8[C@H](O)[C@@H](O)[C@@H](O[C@H]1[C@H](O)[C@H]2O)O[C@@H]8CO)O[C@@H]7CO)O[C@@H]6CO)O[C@@H]5CO)O[C@@H]4CO)O[C@@H]3CO', 'IC50', 'Not Active'),
  ('CC(N)C12CC3CC(CC(C3)C1)C2 (stereo unspecified)', 'IC50', 'Not Active'),
  ('c1ccc2c(c1)Nc1ccccc1S2', 'IC50', 'Not Active');

* * *

Experiment: DRUGMATRIX: GABAA, Muscimol, Central radioligand binding (ligand: [3H] Muscimol)
Format: cell membranes, Rattus norvegicus, Wistar, Brain, Membrane
Conditions: Not Active = under 50% inhibition at 10 µM
OBSERVED_PROPERTY: IC50

INSERT INTO results (molecule, measured_result) VALUES
  ('CO[C@@]12[C@H](COC(N)=O)C3=C(C(=O)C(C)=C(N)C3=O)N1C[C@@H]1N[C@@H]12', 'Not Active'),
  ('CCC1(c2ccccc2)C(=O)NC(=O)NC1=O', 'Not Active'),
  ('Cc1ccnc(NS(=O)(=O)c2ccc(N)cc2)n1', 'Not Active'),
  ('CN(Cc1cc(Br)cc(Br)c1N)C1CCCCC1', 'Not Active'),
  ('NCC(CC(=O)O)c1ccc(Cl)cc1 (stereo not given)', 'Not Active');

* * *

Assay: DRUGMATRIX: beta-Lactamase enzyme inhibition (substrate: Nitrocefin)
Set-up: species or system Bacillus cereus
Conditions: Not Active = under 50% inhibition at 10 µM
OBSERVED_PROPERTY: IC50

INSERT INTO assay_data (compound, measured_result) VALUES
  ('CCN(CC)N=O', 'Not Active'),
  ('CC(=O)Nc1ccc2c(c1)Cc1ccccc1-2', 'Not Active'),
  ('CCN1CCN(c2cc3c(cc2F)c(=O)c(C(=O)O)cn3C2CC2)CC1', 'Not Active'),
  ('CCN1CCCC1CNC(=O)c1cc(S(N)(=O)=O)ccc1OC (centres undefined) [SULPIRIDE]', 'Not Active'),
  ('c1ccc2c(c1)Nc1ccccc1S2', 'Not Active'),
  ('O=c1[nH]cnc2c1ncn2[C@H]1CC[C@@H](CO)O1', 'Not Active'),
  ('Cc1cc(C(C)(C)C)c(O)c(C)c1CC1=NCCN1', 'Not Active'),
  ('CC(C)Cn1cnc2c(N)nc3ccccc3c21', 'Not Active'),
  ('CC[C@H](C)C(=O)O[C@H]1CCC=C2C=C[C@H](C)[C@H](CC[C@@H]3C[C@@H](O)CC(=O)O3)[C@H]21', 'Not Active'),
  ('O=C(O)COC(=O)Cc1ccccc1Nc1c(Cl)cccc1Cl', 'Not Active'),
  ('CC1(COc2ccc(CC3SC(=O)NC3=O)cc2)CCCCC1 (centres undefined)', 'Not Active'),
  ('C=C(Cl)Cl', 'Not Active'),
  ('NCC(CC(=O)O)c1ccc(Cl)cc1 (centres undefined)', 'Not Active'),
  ('Nc1nc(N)c2nc(CNc3ccc(C(=O)N[C@@H](CCC(=O)O)C(=O)O)cc3)cnc2n1', 'Not Active'),
  ('C=CCN1CC[C@]23c4c5ccc(O)c4O[C@H]2/C(=N/N=C2\CC[C@@]4(O)[C@H]6Cc7ccc(O)c8c7[C@@]4(CCN6CC=C)[C@H]2O8)CC[C@@]3(O)[C@H]1C5', 'Not Active'),
  ('CC[C@H](C)[C@@H](CO[C@@H](Cc1ccccc1)C(=O)N[C@@H](CCS(C)(=O)=O)C(=O)OC(C)C)NC[C@@H](N)CS', 'Not Active'),
  ('CC(N)Cc1c[nH]c2ccc(OCc3cccs3)cc12 (centres undefined)', 'Not Active'),
  ('O=C(OC[C@H]1O[C@@H](OC(=O)c2cc(O)c(O)c(OC(=O)c3cc(O)c(O)c(O)c3)c2)[C@H](OC(=O)c2cc(O)c(O)c(OC(=O)c3cc(O)c(O)c(O)c3)c2)[C@@H](OC(=O)c2cc(O)c(O)c(OC(=O)c3cc(O)c(O)c(O)c3)c2)[C@@H]1OC(=O)c1cc(O)c(O)c(OC(=O)c2cc(O)c(O)c(O)c2)c1)c1cc(O)c(O)c(OC(=O)c2cc(O)c(O)c(O)c2)c1', 'Not Active'),
  ('Oc1ncnc2[nH]ncc12', 'Not Active'),
  ('CN1C[C@H](CNC(=O)OCc2ccccc2)C[C@@H]2c3cccc4c3c(cn4C)C[C@H]21', 'Not Active'),
  ('CC(C)NCC(O)COc1ccc(CC(N)=O)cc1 (centres undefined)', 'Not Active'),
  ('O=C(O)c1cc(/N=N/c2ccc(S(=O)(=O)Nc3ccccn3)cc2)ccc1O', 'Not Active'),
  ('CCC(C)(C)C(=O)O[C@H]1C[C@@H](C)C=C2C=C[C@H](C)[C@H](CC[C@@H]3C[C@@H](O)CC(=O)O3)[C@H]21', 'Not Active'),
  ('O=[As][O-].[Na+] [SODIUM ARSENITE]', 'Not Active'),
  ('COc1cc([C@@H]2c3cc4c(cc3[C@H](O)[C@H]3COC(=O)[C@H]23)OCO4)cc(OC)c1OC', 'Not Active'),
  ('Nc1ccc(Cc2ccc(N)cc2)cc1', 'Not Active'),
  ('Cc1ccnc2c1NC(=O)c1cccnc1N2C1CC1', 'Not Active'),
  ('Cc1cnc(NC(=O)C2=C(O)c3ccccc3S(=O)(=O)N2C)s1', 'Not Active'),
  ('CC12CCC(CC1)C(C)(C)O2', 'Not Active'),
  ('C[C@H](C(=O)O)c1ccc2oc(-c3ccc(F)cc3)nc2c1', 'Not Active'),
  ('CC#C[C@]1(O)CC[C@H]2[C@@H]3CCC4=CC(=O)CCC4=C3[C@@H](c3ccc(N(C)C)cc3)C[C@@]21C', 'Not Active'),
  ('COc1ccc(C[C@H](N)C(=O)N[C@H]2[C@@H](O)[C@H](n3cnc4c(N(C)C)ncnc43)O[C@@H]2CO)cc1', 'Not Active'),
  ('C[N+](C)(C)CCOP(=O)([O-])OC[C@H](O)CO', 'Not Active'),
  ('Nc1ccc(C(=O)O)c(O)c1', 'Not Active');

* * *

Assay: DRUGMATRIX: Glutamate, Kainate radioligand binding (ligand: [3H] Kainic acid)
Assay type: cell membranes, Rattus norvegicus, Wistar, Brain, Membrane
Conditions: Not Active = under 50% inhibition at 10 µM
OBSERVED_PROPERTY: IC50

INSERT INTO assay_data (substance, observed_property, measured_result) VALUES
  ('POVIDONE', 'IC50', 'Not Active'),
  ('LEAD(IV) ACETATE', 'IC50', 'Not Active'),
  ('CHROMIC CHLORIDE', 'IC50', 'Not Active'),
  ('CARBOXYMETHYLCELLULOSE', 'IC50', 'Not Active'),
  ('COPPER(II) OXIDE', 'IC50', 'Not Active');
